Entry source: paper PMC4414246

# targetSystem: U1A S46A (UniProt P09012 10-89, S46A)
# Sequence (P09012 10-89 S46A): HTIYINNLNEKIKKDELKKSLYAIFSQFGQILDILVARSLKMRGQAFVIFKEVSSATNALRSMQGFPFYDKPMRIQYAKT
# experimentalDetails: fluorescence polarization
reportedMetric: Kd (µM)
Write the number in µM without appending the unit.

Entry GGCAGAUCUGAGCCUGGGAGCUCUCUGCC (structured_RNA) [TAR RNA] ; Kd = 15.1
